- SYSTEM_UNDER_TEST: Matrilysin (Homo sapiens)
- Sequence (P09237 whole entry): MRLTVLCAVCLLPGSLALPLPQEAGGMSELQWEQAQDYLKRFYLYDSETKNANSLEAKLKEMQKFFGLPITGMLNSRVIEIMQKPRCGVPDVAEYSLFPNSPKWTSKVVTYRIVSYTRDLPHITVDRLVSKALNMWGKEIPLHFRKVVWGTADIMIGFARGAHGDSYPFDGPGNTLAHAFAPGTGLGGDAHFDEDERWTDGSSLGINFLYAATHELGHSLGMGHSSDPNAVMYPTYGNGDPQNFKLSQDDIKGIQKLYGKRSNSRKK
- ASSAY_COMMENT: Inhibition of human recombinant MMP7
READOUT_KIND: IC50

Requested read-out IC50, target or system Matrilysin (Homo sapiens), entry NC(=O)CC1CCCc2sc3nc(C(=O)NCc4ccc5c(c4)NC(=O)CO5)[nH]c(=O)c3c21 (racemic) > 10 µM

* * *

- SYSTEM_UNDER_TEST: Stromelysin-1 (Homo sapiens, UniProt P08254)
- Sequence (P08254 whole entry): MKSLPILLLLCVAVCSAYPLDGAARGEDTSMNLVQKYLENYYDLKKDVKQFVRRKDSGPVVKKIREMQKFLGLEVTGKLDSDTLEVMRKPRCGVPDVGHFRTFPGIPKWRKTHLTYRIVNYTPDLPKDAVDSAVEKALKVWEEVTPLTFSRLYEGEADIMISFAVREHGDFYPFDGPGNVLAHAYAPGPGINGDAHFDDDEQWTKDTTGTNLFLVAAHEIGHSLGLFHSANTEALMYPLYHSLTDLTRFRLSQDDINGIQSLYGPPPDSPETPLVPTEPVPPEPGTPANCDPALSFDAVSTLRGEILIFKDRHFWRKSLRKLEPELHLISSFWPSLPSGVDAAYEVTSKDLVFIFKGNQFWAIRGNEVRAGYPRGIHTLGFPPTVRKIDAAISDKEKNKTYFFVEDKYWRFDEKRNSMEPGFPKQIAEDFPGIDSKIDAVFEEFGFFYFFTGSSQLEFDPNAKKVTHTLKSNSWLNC
- ASSAY_COMMENT: Inhibition of human recombinant MMP3
READOUT_KIND: IC50

Entry NC(=O)CC1CCCc2sc3nc(C(=O)NCc4ccc5c(c4)NC(=O)CO5)[nH]c(=O)c3c21 (racemic) : reported IC50 = ? > 2.5 µM
